B1: GNB5 (parent)
chain: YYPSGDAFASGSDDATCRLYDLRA

variants of: B1; assay: protein stability index of a GFP-peptide fusion (GPS, HEK-293T) (PSI 1-6); higher = more stable; details: c terminus: a fixed tail appended;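 further: lentivirally expressed fusions sorted by FACS into six bins by GFP to DsRed ratio, PSI derived from sequencing read proportions per bin multiplied by bin number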
readout: protein stability index

variant_notation: G11P
numeric_result: 2.31

variant_notation: D13P
numeric_result: 2.19

variant_notation: C17M
numeric_result: 2.46

variant_notation: Y20R
numeric_result: 3.13

variant_notation: A9K
numeric_result: 2.22

variant_notation: A24W
numeric_result: 2

variant_notation: D13Q
numeric_result: 2.2

variant_notation: G11K
numeric_result: 1.94

variant_notation: D13W
numeric_result: 1.65

variant_notation: S4D
numeric_result: 3.56

variant_notation: A7N
numeric_result: 2.73

variant_notation: D13N
numeric_result: 2.38

variant_notation: A7I
numeric_result: 2.31

variant_notation: Y1V
numeric_result: 3.72

variant_notation: R18M
numeric_result: 2.2

variant_notation: A24V
numeric_result: 1.78

variant_notation: D21C
numeric_result: 1.58

variant_notation: Y20Q
numeric_result: 2.88

variant_notation: S4L
numeric_result: 2.52

variant_notation: A15P
numeric_result: 2.63

variant_notation: S4C
numeric_result: 2.16

variant_notation: Y2H
numeric_result: 2.69

variant_notation: L22C
numeric_result: 3.17

variant_notation: S12D
numeric_result: 3.23

variant_notation: D13E
numeric_result: 2.27

variant_notation: Y1D
numeric_result: 4.09

variant_notation: D21A
numeric_result: 2.18

variant_notation: L22D
numeric_result: 3.03

variant_notation: L22A
numeric_result: 2.8

variant_notation: T16E
numeric_result: 2.79

variant_notation: Y20M
numeric_result: 2.77

variant_notation: A24T
numeric_result: 2.86

variant_notation: L19Q
numeric_result: 2.65

variant_notation: S10D
numeric_result: 3.28

variant_notation: R18E
numeric_result: 3.25

variant_notation: G11Q
numeric_result: 2.14

variant_notation: Y2G
numeric_result: 2.26

variant_notation: S10L
numeric_result: 2.05

variant_notation: F8L
numeric_result: 3.6

variant_notation: Y20C
numeric_result: 2.26

variant_notation: A9C
numeric_result: 2.36

variant_notation: L19H
numeric_result: 2.44

variant_notation: A15D
numeric_result: 3.4

variant_notation: D13F
numeric_result: 1.63

variant_notation: G11L
numeric_result: 2.89

variant_notation: S10W
numeric_result: 2.23
